- subject.of.test: human GPR119 (Homo sapiens)
- Construct: expressed in transfected cells; host or cells: CHO K1
- test.summary: hGPR119 agonistic activity, LANCE Ultra cAMP accumulation assay in CHO K1 cells stably expressing human GPR119
- Assay type: cell-based
- Method: CHO K1 cells stably transfected with human GPR119 were grown at 37 °C, […] and 5% CO2 in 75 cm flasks containing DMEM/F12 (1:1) media with added 10% FBS (Gibco®), Geneticin (Gibco®) and grown until 90% confluent. Cells were then washed (PBS), lifted with cell dissociation solution (Invtrogen®), counted and used for cAMP accumulation assays and/or passaging (1:10). […]
property.name: pEC50
Kindly note that pEC50 refers to -log10 of the concentration in mol/L and answer with the value alone.

INSERT INTO results (compound, subject_of_test, assay_result) VALUES
  ('CC(C)(C)OC(=O)N1C2CCC1CC(Nc1ncnc3c1OCCN3c1ccc(C#N)cc1F)C2 (centres unmarked)', 'human GPR119 (Homo sapiens)', 7.89);

Moving on to another compound below.
Noted pEC50 for CC(C)c1noc(N2CCC(COc3ccc(-c4ccc(S(C)(=O)=O)cc4)nc3)CC2)n1 [GSK-1292263, reference compound] , tested on human GPR119 (Homo sapiens): 8.18

====

- subject.of.test: human GPR119 (Homo sapiens, UniProt Q8TDV5)
- Construct: expressed in transfected cells; host or cells: CHO K1
- Sequence (Q8TDV5 whole entry): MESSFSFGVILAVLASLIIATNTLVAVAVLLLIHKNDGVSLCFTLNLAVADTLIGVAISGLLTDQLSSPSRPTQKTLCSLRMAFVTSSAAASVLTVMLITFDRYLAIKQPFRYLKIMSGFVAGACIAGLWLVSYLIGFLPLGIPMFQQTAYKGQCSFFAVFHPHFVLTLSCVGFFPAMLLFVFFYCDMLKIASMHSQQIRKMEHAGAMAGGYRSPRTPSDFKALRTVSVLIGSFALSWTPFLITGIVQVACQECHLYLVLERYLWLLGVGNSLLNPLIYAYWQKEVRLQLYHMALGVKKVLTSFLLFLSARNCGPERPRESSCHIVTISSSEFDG
- test.summary: hGPR119 agonistic activity, LANCE Ultra cAMP accumulation assay in CHO K1 cells stably expressing human GPR119
- Assay type: cell-based
- conditions: cAMP stimulation % compared to maximal effect of GSK1292263
# GPR119 activation %max (inherent activity) annotations

Please review the entries below; each comes with its answer.
INSERT INTO results (molecule, subject_of_test, assay_result) VALUES
  ('CC(C)(C)OC(=O)N[C@@H]1CCCN(C(=O)CN2[C@@H]3CC[C@H]2C[C@@H](Nc2ncnc4c2OCCN4c2ccc(C#N)cc2F)C3)C1', 'human GPR119 (Homo sapiens, UniProt Q8TDV5)', '75.6%'),
  ('N#Cc1ccc(N2CCOc3c(NC4CC5CCC(C4)N5CC(=O)N4CCn5c(nnc5C(F)(F)F)C4)ncnc32)c(F)c1 (stereo not drawn)', 'human GPR119 (Homo sapiens, UniProt Q8TDV5)', '100%');

The molecule N#Cc1ccc(N2CCOc3c(N[C@H]4C[C@H]5CC[C@@H](C4)N5c4ncc(Cl)cn4)ncnc32)c(F)c1 showed GPR119 activation %max (inherent activity) equal to 71.2%

// GPR119 activation %max (inherent activity) lookup, molecule = CCc1cnc(N2[C@@H]3CC[C@H]2C[C@@H](Nc2ncnc4c2OCCN4c2ccc(C#N)cc2F)C3)nc1 , result: 60.5%

Note to self: GPR119 activation %max (inherent activity) recorded for CC(C)(C)OC(=O)N1CCN(C(=O)CN2[C@@H]3CC[C@H]2C[C@@H](Nc2ncnc4c2OCCN4c2ccc(C#N)cc2F)C3)CC1 was 79.6%

GPR119 activation %max (inherent activity) recorded for this molecule, CC(C)OC(=O)N1[C@@H]2CC[C@H]1C[C@@H](Nc1ncnc3c1OCCN3c1ccc(C#N)cc1F)C2 , is 146.3%

====

- subject.of.test: human GPR119 (Homo sapiens, UniProt Q8TDV5)
- Construct: expressed in transfected cells; host or cells: CHO K1
- test.summary: hGPR119 agonistic activity, LANCE Ultra cAMP accumulation assay in CHO K1 cells stably expressing human GPR119
- Format: cell-based
- conditions: human GPR119 in CHO K1 cells, cAMP, 1 h incubation; read-out: GPR119 activation EC50
property.name: pEC50
Reminder that pEC50 is minus the log10 of a molar concentration.

Use the examples below as a reference point.
INSERT INTO measurements (compound, subject_of_test, property_name, assay_result) VALUES
  ('CC(C)(C)OC(=O)N1CCC(Nc2ncnc3c2OCCN3c2ccc(C#N)cc2F)CC1', 'human GPR119 (Homo sapiens, UniProt Q8TDV5)', 'pEC50', 6.70),
  ('N#Cc1ccc(N2CCOc3c(NC4CC5CCC(C4)N5CC(=O)N4CCn5c(nnc5C(F)(F)F)C4)ncnc32)c(F)c1 (stereo not shown)', 'human GPR119 (Homo sapiens, UniProt Q8TDV5)', 'pEC50', 6.96);

Measured pEC50, CC(C)OC(=O)N1CCC(Nc2ncnc3c2OCCN3c2ccc(C#N)cc2F)CC1 : 6.92

Given item CC(C)(C)OC(=O)N1C2CCC1CC(CNc1ncnc3c1OCCN3c1ccc(C#N)cc1F)C2 (stereo not shown) , the value recorded as its pEC50 is 5.74
